# Organism: Rattus norvegicus
# Assay Explanation: Clearance rate constant using isolated perfused rat liver (IPRL) assay
# Format: ADME
Parameter k: see the listing below.
Please state the figure in h⁻¹; there is no need to write the unit.

Reference set (5 entries):
{"columns": ["Compound", "k, h⁻¹"],
 "data": [
  ["CC(=O)N1CSC[C@@H]1C(=O)N/C(=C\\c1ccc(OCc2c(Cl)cccc2Cl)cc1)C(=O)O", 4.1],
  ["CC(=O)N1CSC[C@H]1C(=O)N/C(=C/c1ccc(OCc2ccccc2)cc1)C(=O)O", 0.6],
  ["O=C(O)/C(=C/c1ccc(OCc2c(Cl)cccc2Cl)cc1)NC(=O)c1cccnc1Cl", 3.7],
  ["O=C(O)/C(=C/c1ccc(NC(=O)c2c(Cl)cncc2Cl)cc1)NC(=O)c1cccnc1Cl", 3.9],
  ["CC(=O)N1CSCC1C(=O)N/C(=C/c1ccc(OCc2c(Cl)cccc2Cl)cc1)C(=O)O (centres undefined)", 0.4]
]}

Asked: Sample CC(C)(C)C(=O)N/C(=C\c1ccc(NC(=O)c2c(Cl)cccc2Cl)cc1)C(=O)O — what was its k?
Given back: 4.8

Asked: Entry to check: O=C(O)/C(=C\c1ccc(NC(=O)c2c(Cl)cncc2Cl)cc1)NC(=O)c1cccnc1Cl
Given back: 1.5

Asked: Again, but for O=C(O)C1=Cc2ccc(NC(=O)c3c(Cl)cncc3Cl)cc2NC(c2cccnc2Cl)=N1
Given back: 5.3

Asked: What do you have for CC(=O)N1CSC[C@@H]1C(=O)N/C(=C/c1ccc(NC(=O)c2c(Cl)cncc2Cl)cc1)C(=O)O ?
Given back: 1.2

Source: ChEMBL document CHEMBL1136610
